Target: T1, Abz-LPESGK(Dnp)-CONH2
T1 chain: LPESGK
Doc: threshold 10 fold (exclusive). Items with specificity (relative cat. Efficiency, fold), LPESG over LPETG beneath it return Condition met; others return Condition not met.

Some solved entries appear below for comparison.
protein="4S.6B (protein) QAKPQIPKDKSKVAGYIEIPDADIKEPVYPGPATREQLDRGVSFVEENESLDDQNISISGHTAIDRPNYQFTNLPAAKKGSMVYFKVGNETRKYKMTSIRNVKPTAVEVLDEQKGKDKQLTLVTCDDYNPETGVWETRKIFVATEVK" label_class="Condition met"
protein="eSrtA(4S-6) (protein) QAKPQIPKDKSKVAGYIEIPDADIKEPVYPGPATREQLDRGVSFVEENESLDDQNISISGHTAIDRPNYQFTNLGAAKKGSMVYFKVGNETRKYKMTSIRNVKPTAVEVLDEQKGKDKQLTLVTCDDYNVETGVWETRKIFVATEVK" label_class="Condition not met"
protein="eSrtA(4S-4) (protein) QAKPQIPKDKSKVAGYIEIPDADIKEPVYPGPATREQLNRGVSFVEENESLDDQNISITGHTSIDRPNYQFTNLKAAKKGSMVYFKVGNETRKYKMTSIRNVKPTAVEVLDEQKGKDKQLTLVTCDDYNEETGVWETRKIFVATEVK" label_class="Condition met"

We now examine a further protein.
**Query** Please check: specificity (relative cat. Efficiency, fold), LPESG over LPETG for 4S.6C (protein) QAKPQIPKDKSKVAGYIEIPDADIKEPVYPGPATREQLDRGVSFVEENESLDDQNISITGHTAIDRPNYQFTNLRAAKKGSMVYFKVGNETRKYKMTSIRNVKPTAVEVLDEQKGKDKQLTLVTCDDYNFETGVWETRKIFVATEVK , strictly under 10 fold or not?
**Result** Condition not met
